- Tested on: A549/ATCC NSCLC
- EXPERIMENT SUMMARY: NCI-60 one-dose screen, 48 h
- MEASUREMENT CONDITIONS: 10 µM unless noted
The panel holds about 83,000 compounds, 20% with a hit somewhere; the sample as a whole holds those more often. The source made the active and inactive calls. Rule for the calls: active = growth percent below 10; inactive = the rest.
Reply using exactly one outcome from active, inactive

// known answers, use as guide
> print(dat)
                                   compound  target.of.assay  label.class
1  CCC(=O)Oc1ccc2c(c1)CC[C@@H]1[C@@H]2CC[C@]2(C)C[C@H](OC(=O)CC)C[C@@H]12  A549/ATCC NSCLC     inactive
2  CC(Br)C(O)c1cc2c(cc1Br)OCO2 (stereo not given)  A549/ATCC NSCLC     inactive
3  COc1cc(-c2csc(NC(=O)c3cc(C(F)(F)F)cc(C(F)(F)F)c3)n2)cc(OC)c1OC  A549/ATCC NSCLC     inactive
4  Cc1cc(Cl)ccc1OC(C)C(=O)Nc1nnc(C2CC2)s1 (stereo not given)  A549/ATCC NSCLC     inactive

## Task What did this assay record as the result for O=C(/C=C/c1ccccc1)n1c(-c2ccc(Cl)cc2)nc2ccccc21 ?
## Result active

## Task What did this assay record as the result for COc1ccc(NC(=O)c2cc3ccccc3nc2Nc2cc(OC)c(OC)c(OC)c2)cc1 ?
## Result inactive

## Task What did this assay record as the result for COc1cc(Br)c(OC)cc1Br ?
## Result inactive

## Task What did this assay record as the result for COc1ccc(-c2nc3sccn3c2-c2ccnc(NCCCNS(=O)(=O)c3ccc(F)cc3)n2)cc1 ?
## Result inactive

## Task What did this assay record as the result for Cc1ccc2nc(SCn3nnc4ccccc4c3=O)[nH]c2c1 ?
## Result inactive

## Task What did this assay record as the result for COc1ccc(NC(=O)CSc2nc3ccc(Cl)cc3c(=O)n2-c2ccccc2C(F)(F)F)c(OC)c1OC ?
## Result inactive
